Tested on: HOP-62 NSCLC
experiment: NCI-60 one-dose screen, 48 h
condition.description: 10 µM unless noted
The panel holds about 83,000 compounds, 20% with a hit somewhere; the sample as a whole holds those more often. Activity calls are given as the source filed them. How the source made its calls: active means growth percent below 10; inactive means the rest.
Hi there, use one of these labels in your reply, thanks! active, inactive

Example cases with answers are listed next.
COc1ccc(CCN2C(=O)CCSC2=S)cc1OC ... inactive
COc1ccc(C(O)(CCC(C)C)C(CN2CCOCC2)c2ccc(Cl)cc2)cc1 (centres undefined) ... inactive
O=C(Nc1ccc(Br)cc1F)c1cc(I)ccc1O ... active
COc1ccccc1C(=O)O/N=C(\N)Cc1cccc2ccccc12 ... inactive
COc1cc(/C=C2\CN(C)C/C(=C\c3cc(CN4CCOCC4)c(O)c(OC)c3)C2=O)cc(CN2CCOCC2)c1O ... inactive
O=C(CSc1nc2ccccc2c(=O)n1-c1ccccc1)Nc1ccc(C(=O)/C=C/c2ccc(Cl)cc2)cc1 ... inactive
N#C/C(=C1\SC(=O)CN1c1ccccc1)c1nc2ccccc2s1 ... inactive
COC(=O)/C(CCC=C(C)C)=C1\[C@@H](OC(C)=O)C[C@@]2(C)[C@H]1CC(=O)[C@H]1[C@@]3(C)CC[C@H](NCc4ccccc4)[C@@H](C)[C@@H]3CC[C@@]12C ... inactive

Okay, next one:
Query: recorded result category for Nc1nc(-c2ccccc2Br)nn1-c1nc2ccccc2s1 in this test
inactive

* * *

System: PC-3 prostate
experiment: NCI-60 one-dose screen, 48 h (100 = growth as untreated, 0 = no growth, -100 = all killed)
condition.description: 10 µM unless noted
This is part of a sample that, as a whole, favours compounds with a hit. Of some 83,000 tested, about 20% had one in any assay.
measurement.name: growth (%)
One number for each entry, in %.

Hi, could you look up growth for each item in my list?
1. O=c1c2cccc(F)c2sc2c(N3CCNCC3)nc3ccccc3c12
2. Nc1ncnc(N)c1NC(=O)c1ccc(OCc2ccccc2)cc1
3. COc1cc(CNC(=O)Cc2ccccc2)ccc1OCc1cn(-c2ccc(F)cc2)nn1
4. CCN1C(=O)N(c2ccccc2)C2NN=c3s/c(=C4\C(=O)N(C(C)C)c5ccccc54)c(=O)n3C21 (stereo not given)
5. CCCCCCCCCCCCCCn1cc(C2=C(c3coc4ccc(OC)cc34)C(=O)NC2=O)c2ccccc21

39.8
106
98.5
25.7
109

* * *

Would you kindly list growth for each of these molecules?
System: SF-268 CNS
experiment: NCI-60 one-dose screen, 48 h (100 = growth as untreated, 0 = no growth, -100 = all killed)
condition.description: 10 µM unless noted
About 83,000 compounds went through this panel and 20% of them were active in at least one assay; those are over-represented in the sample as a whole. The source made the active and inactive calls. Rule for the calls: active = growth percent below 10; inactive = the rest.

Take a look at these entries with their results.
CC(C)C[C@H](C(=O)N[C@H](C(N)=O)C(C)C)N1CC=CCN(OCc2ccccc2)S1(=O)=O ... 108% [2.5 µM] (inactive)
COC(=O)[C@H](NC(=O)C1(C)CCC[C@]2(C)[C@H]3C[C@H]4C(C(C)C)=C[C@]3(CC[C@@H]12)[C@@H]1C(=O)CCC(=O)[C@@H]14)C(C)C (stereo not given in full) ... 96.5% (inactive)
COc1ccc(N)c(-c2cc3c(c4c2[nH]c2ccc(OC)cc24)CCCC3)c1 ... 73.8% (inactive)
CCOC(=O)C1=CN(C)C=C(C(=O)OCC)C1c1cc(Br)c(OCC)c(OC)c1 ... 73.3% (inactive)
COc1cc(/C=C2\CN(C)C/C(=C\c3cc(CN4CCCCC4)c(O)c(OC)c3)C2=O)cc(CN2CCCCC2)c1O ... 41% (inactive)
COc1cc(/C=C2\Oc3cc(OCCCN4CCCC4)ccc3C2=O)cc(OC)c1 ... 72.5% (inactive)
O=c1c2cc(F)ccc2sc2c(NCCCNCCO)nc3ccc(Cl)cc3c12 ... 47.9% (inactive)
CC1=C(C(=O)OCC2CCN(C(=O)OC(C)(C)C)CC2)[C@@H](c2cccc(C#N)c2)C2=C(CC(C)(C)CC2=O)N1 ... 50.5% (inactive)
O=C(Nc1ccc(F)cc1F)c1cc(Br)ccc1O ... 7.16% (active)
CC(=O)c1ccc(Cc2ccc(C(C)=O)s2)s1 ... 101% (inactive)

Would you mind giving growth for every molecule in the list below?
1. COc1ccc(Nc2cc(C)nc(NCc3ccccc3)n2)cc1
2. CCOC(=O)c1sc(-c2ccc(OS(=O)(=O)c3ccccc3[N+](=O)[O-])c(C=O)c2)nc1C
3. Oc1c(CN2CCN(c3ccccc3F)CC2)cc(Br)c2cccnc12
4. O=C(Nc1ccc(N2CCNCC2)cc1)c1[nH]ncc1Nc1ncnc2sc3c(c12)CCC3
5. COC(=O)c1c2c(c(C)[n+]([O-])c1C)C(=O)C(NCc1ccc(Br)cc1)=CC2=O
6. CC/C(=C(\CC)c1ccc(OCC[N+](C)(C)C)cc1)c1ccc(OC)cc1

1: 47.8% (inactive); 2: 46.6% (inactive); 3: 0.474% (active); 4: -72.3% (active); 5: 16.2% (inactive); 6: 61.2% (inactive)

* * *

Test system: HOP-62 NSCLC
experiment: NCI-60 one-dose screen, 48 h (100 = growth as untreated, 0 = no growth, -100 = all killed)
condition.description: 10 µM unless noted
About 83,000 compounds went through this panel and 20% of them were active in at least one assay; those are over-represented in the sample as a whole.
Mark condition met for growth under 40%, condition not met if at or over.

CC1=C(C(=O)OCC2CCN(C(=O)OC(C)(C)C)CC2)[C@@H](c2cccc(C#N)c2)C2=C(CC(C)(C)CC2=O)N1 ... condition not met
COC(=O)/C(CCC=C(C)C)=C1\[C@@H](OC(C)=O)C[C@@]2(C)[C@H]1C[C@@H](O)[C@H]1[C@@]3(C)CC[C@H](NC(=O)c4cnccn4)[C@@H](C)[C@@H]3CC[C@@]12C ... condition not met
O=C(/C=C/c1ccc(Cl)cc1)c1ccc(Nc2nc(NCCO)nc(N3CCOCC3)n2)cc1 ... condition not met
COC(=O)[C@H](NC(=O)C1(C)CCC[C@]2(C)[C@H]3C[C@H]4C(C(C)C)=C[C@]3(CC[C@@H]12)[C@@H]1C(=O)CCC(=O)[C@@H]14)C(C)C (stereo partly drawn) ... condition not met
O=C(Nc1ccc(I)cc1F)c1cc(Br)ccc1O ... condition met

Given the entry Cc1ccc2nc(NC(=O)CSC(=S)N3CCN(c4ccccc4)CC3)sc2c1 , would its reported growth be below 40%?
condition not met

# check: growth < 40% for Cn1c(/C=C(\C#N)c2cccc(C(F)(F)F)c2)nc2c(N3CCOCC3)nc(Cl)nc21
condition met

# strict comparison: is reported growth < 40%? input = CCN1C(=O)N(CC)C2C1NC(=S)N2/N=C/C=C/c1ccccc1OC (stereo not drawn)
condition not met

* * *

System: NCI-H460 lung
experiment: NCI-60 one-dose screen, 48 h (100 = growth as untreated, 0 = no growth, -100 = all killed)
condition.description: 10 µM unless noted
Protocol: Growth inhibition of the NCI-H460 human Non-Small Cell Lung tumor cell line is measured as a screen for anti-cancer activity. Cells are grown in 96 well plates and exposed to the test compound for 48 hours. Compounds are tested at a single concentration, which is 10^-5 M for most compounds. The reported endpoint is percent growth (GI% or GIPRCNT), where numbers from 0 - 100% represent growth inhibition, and numbers from -100% - 0 represent cell death. […]
About 83,000 compounds went through this panel and 20% of them were active in at least one assay; those are over-represented in the sample as a whole.
Cut-off 10% on growth, inclusive. At or above means true; below means false.

COc1ccc(Cn2c(Br)c3c(c2-c2cc(OC)c(OC)c(OC)c2)CCc2sc(NC(C)=O)nc2-3)cc1 ... true
COc1ccc(/C=C2\SC(=Nc3ccccc3)NC2=O)cc1 ... false
O=c1[nH]nnc2c1ncn2C1OC(CO)C(O)C1O (configuration not stated) ... true

Please indicate if the recorded growth for CS(=O)(=O)Nc1ccc(C(=O)NC(C(=O)NO)c2ccc(-c3cccc(F)c3)cc2)cc1 (configuration not stated) meets or exceeds 10%.
true

Could you verify whether the entry C[n+]1c2ccccc2nc2ccc(NCCO)cc21 shows growth of no less than 10%?
true

Dear colleague, could you confirm whether Fc1ccc(Oc2ccc(Nc3ncnc4onc(-c5ccccc5)c34)cc2)cc1 has growth at or above 10%?
true

* * *

Tested on: T-47D breast
experiment: NCI-60 one-dose screen, 48 h (100 = growth as untreated, 0 = no growth, -100 = all killed)
condition.description: 10 µM unless noted
Description: Growth inhibition of the T-47D human tumor cell line is measured as a screen for anti-cancer activity. Cells are grown in 96 well plates and exposed to the test compound for 48 hours. Compounds are tested at a single concentration, which is 10^-5 M for most compounds. The reported endpoint is percent growth (GI% or GIPRCNT), where numbers from 0 - 100% represent growth inhibition, and numbers from -100% - 0 represent cell death. For example, a value of 40 represents 60% growth inhibition. […]
About 83,000 compounds went through this panel and 20% of them were active in at least one assay; those are over-represented in the sample as a whole.
Record yes (1) whenever growth is at 40% or higher; record no (0) when lower.

Please review the following examples before continuing.
O=C(/C=C/c1ccc(Cl)cc1)c1ccc(Nc2nc(NCCO)nc(N3CCOCC3)n2)cc1 ... yes (1)
CN=c1ccc2nc3ccc(N)cc3sc-2c1 ... no (0)
CCCSC1=NC2C(N(CC)C(=O)N2CC)N1/N=C/C=C/c1ccccc1[N+](=O)[O-] (stereo unspecified) ... yes (1)
C#CCn1cc(C=C2C(=O)N(C)C(=O)N(C)C2=O)c2cc(Cl)ccc21 ... yes (1)
C1=CC2(C=C1)OC21CCC2(C=CC3(C2)OC3C2CCCCC2)CC1 (stereo unspecified) ... yes (1)
COC(=O)c1c2c(c(C)[n+]([O-])c1C)C(=O)C(NCc1ccc(Br)cc1)=CC2=O ... no (0)

Reported growth at or above 40%? CC/C=C\C[C@H](O)C/C=C1/C(=O)C=C[C@@H]1C/C=C\CCCC(=O)OCCS(=O)(=O)c1ccccc1
no (0)

Determine whether this molecule has growth no lower than 40%: O=C1NC(=O)C(=Cc2cn(Cc3cn(Cc4ccc(Cl)cc4Cl)nn3)c3ccccc23)C(=O)N1
yes (1)
